Listing of entries alongside the reported IC50.
molecular target: Polyunsaturated fatty acid 5-lipoxygenase (Rattus norvegicus, UniProt P12527); test: In vitro inhibition of 5-lipoxygenase in RBL-2H3 (Rat basophilic leukemia) cells.; assay type: functional, cell-based
Sequence (P12527 whole entry): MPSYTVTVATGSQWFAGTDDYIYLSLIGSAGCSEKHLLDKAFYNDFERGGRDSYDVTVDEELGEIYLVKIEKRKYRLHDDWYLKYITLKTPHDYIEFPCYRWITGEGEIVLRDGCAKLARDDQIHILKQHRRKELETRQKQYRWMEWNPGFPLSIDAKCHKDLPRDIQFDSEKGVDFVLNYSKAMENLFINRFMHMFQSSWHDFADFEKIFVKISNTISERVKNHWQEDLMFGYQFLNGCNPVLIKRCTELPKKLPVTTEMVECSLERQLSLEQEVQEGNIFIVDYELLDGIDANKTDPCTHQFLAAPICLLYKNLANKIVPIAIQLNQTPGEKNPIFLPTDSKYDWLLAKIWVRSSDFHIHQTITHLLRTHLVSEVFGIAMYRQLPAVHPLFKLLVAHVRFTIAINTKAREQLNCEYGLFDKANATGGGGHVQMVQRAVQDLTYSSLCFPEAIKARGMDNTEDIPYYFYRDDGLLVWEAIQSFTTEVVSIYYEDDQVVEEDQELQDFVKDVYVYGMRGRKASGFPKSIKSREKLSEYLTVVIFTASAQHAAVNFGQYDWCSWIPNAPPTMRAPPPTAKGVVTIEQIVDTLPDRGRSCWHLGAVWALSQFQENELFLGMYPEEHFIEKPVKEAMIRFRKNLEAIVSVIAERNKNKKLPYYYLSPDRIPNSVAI

Look over these answered cases.
| molecule | measured-endpoint | reported-value |
| --- | --- | --- |
| CCCOc1c(NC(=O)N(O)C(C)CC)cc(C2CCC(c3cc(OC)c(OC)c(OC)c3)O2)cc1OC (cis isomer) | IC50 | 450 nM |
| CCCOc1cc([C@H]2CC[C@H](c3cc(OC)c(OC)c(OC)c3)O2)cc(N(CC)C(=O)N(C)O)c1OCCC | IC50 | 3070 nM |
| CCCOc1cc([C@H]2CC[C@H](c3cc(OC)c(OC)c(OC)c3)O2)cc(N(CC)C(=O)N(O)CC)c1OCCC | IC50 | 1340 nM |

Below: the item to evaluate.
Reported IC50, molecule CCCOc1c(NC(=O)N(O)C2CCCCC2)cc(C2CCC(c3cc(OC)c(OC)c(OC)c3)O2)cc1OC (cis isomer) : ____
2540 nM
